Each entry below carries its recorded log2 fold change.
experimental-target: ZDHHC20 (UniProt Q5W0Z9)
Sequence (Q5W0Z9 whole entry, looked up): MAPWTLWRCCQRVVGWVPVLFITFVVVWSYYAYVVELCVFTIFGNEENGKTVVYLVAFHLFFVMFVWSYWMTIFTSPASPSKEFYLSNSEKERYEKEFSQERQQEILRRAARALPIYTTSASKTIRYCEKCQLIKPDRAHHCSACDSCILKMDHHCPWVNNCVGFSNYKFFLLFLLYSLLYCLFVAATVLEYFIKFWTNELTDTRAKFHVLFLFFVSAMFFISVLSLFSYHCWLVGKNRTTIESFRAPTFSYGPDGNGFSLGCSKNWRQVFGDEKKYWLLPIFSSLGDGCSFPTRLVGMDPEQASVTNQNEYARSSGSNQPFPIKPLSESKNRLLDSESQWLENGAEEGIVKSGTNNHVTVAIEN
assay-text: log2 fold change, soluble protein after heating vs DMSO (PISA); higher = thermal stabilisation; K562 cells, 10 uM, 30 min; active = over 0.2 and 3.5 SD of the protein, either way, in both replicates (recomputed)
The full data set covers some 7,900 targets. This sample favours those with a hit. About 0.6% of all pairs of compound and target were hits.
reported-endpoint: log2 fold change

[[record]]
compound = "CC(=O)c1cnc2ccc(-c3cc(Cl)c(O)c(Cl)c3)nc2c1N[C@H]1CC[C@H](CN(C)C)CC1"
reported_endpoint = "log2 fold change"
recorded_value = "0.026 (inactive)"

[[record]]
compound = "Cc1ccc(NC(=O)c2cccc(N(C)C)c2)cc1NC(=O)c1ccc(O)cc1"
reported_endpoint = "log2 fold change"
recorded_value = "0.085 (inactive)"

[[record]]
compound = "CCn1c(C(=O)N(C2CC2)C2CC2)cc2c3c(ncn3C)c(Nc3cc(C)n(C)n3)nc21"
reported_endpoint = "log2 fold change"
recorded_value = "-0.023 (inactive)"

[[record]]
compound = "Cc1cc(SCc2sc(-c3ccc(C(F)(F)F)cc3)nc2C)ccc1OCC(=O)O"
reported_endpoint = "log2 fold change"
recorded_value = "-0.249 (inactive)"

[[record]]
compound = "O=C1NC(=NCc2cccs2)S/C1=C\\c1ccc2ncccc2c1"
reported_endpoint = "log2 fold change"
recorded_value = "-0.125 (inactive)"

[[record]]
compound = "CN1CCN(CCOc2cc(OC3CCOCC3)c3c(Nc4c(Cl)ccc5c4OCO5)ncnc3c2)CC1"
reported_endpoint = "log2 fold change"
recorded_value = "-0.045 (inactive)"

[[record]]
compound = "O=C(O)c1ccc2c(c1)nc(Nc1cccc(Cl)c1)c1ccncc12"
reported_endpoint = "log2 fold change"
recorded_value = "0.08 (inactive)"

[[record]]
compound = "Cc1ccc2c(=O)c3ccccc3n(CCCN)c2c1C"
reported_endpoint = "log2 fold change"
recorded_value = "0.028 (inactive)"

[[record]]
compound = "COc1ccc(Cn2ccc3ccc(C(=O)NO)cc32)cc1"
reported_endpoint = "log2 fold change"
recorded_value = "-0.034 (inactive)"

[[record]]
compound = "Cn1c2cc(S(C)=O)sc2c2cnn(Cc3cccc(N)c3)c(=O)c21 (configuration not stated)"
reported_endpoint = "log2 fold change"
recorded_value = "0.084 (inactive)"

[[record]]
compound = "CN(C)CC(=O)Nc1ccc2[nH]c(=O)c3ccccc3c2c1"
reported_endpoint = "log2 fold change"
recorded_value = "-0.026 (inactive)"

[[record]]
compound = "CC[C@H](C)[C@H](NC(=O)[C@H]([C@@H](C)CC)N(C)C(C)=O)C(=O)N[C@H](C(=O)N[C@@H](CC(C)C)C(=O)[C@@]1(C)CO1)[C@@H](C)O"
reported_endpoint = "log2 fold change"
recorded_value = "-0.102 (inactive)"

